experimental protocol: Solubility in microemulsion excipients
Type: physicochemical
settings: Capryol 90, oil or lipid, thermodynamic from solid; 25 °C, 72 h; read-out: Solubility in Capryol 90

| substance smiles | scale unit | solubility at 72 h |
| --- | --- | --- |
| Cc1cc(CNc2cccc(C(=O)OCc3oc(=O)oc3C)c2)ccc1OCc1ccc(F)cc1 | µg/mL | 4450 |

----------
experimental protocol: Bioconversion of prodrugs in rat plasma
Assay type: in vitro ADME
settings: 100 μM prodrug, 37 °C, pooled rat plasma
measured endpoint: half-life at 100 μM (h)

| substance smiles | recorded number |
| --- | --- |
| Cc1cc(CNc2cccc(C(=O)OCc3oc(=O)oc3C)c2)ccc1OCc1ccc(F)cc1 | 0.3 |
| Cc1cc(CNc2cccc(C(=O)OC(C)C)c2)ccc1OCc1ccc(F)cc1 | 6.8 |
| COC(=O)c1cccc(NCc2ccc(OCc3ccc(F)cc3)c(C)c2)c1 | 9.6 |
| CCOC(=O)c1cccc(NCc2ccc(OCc3ccc(F)cc3)c(C)c2)c1 | 2.6 |
